B1: TPR 5TU (parent)
chain: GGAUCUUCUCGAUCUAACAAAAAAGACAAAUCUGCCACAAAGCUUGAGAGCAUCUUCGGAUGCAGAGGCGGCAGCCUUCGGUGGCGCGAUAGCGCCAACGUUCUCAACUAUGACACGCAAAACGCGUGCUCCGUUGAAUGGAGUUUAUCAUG

# Variants of: B1
# testMethodNotes: polymerase ribozyme fitness, log enrichment relative to wild type (log ratio); higher = more active; in vitro selection for triplet polymerase activity
Fewer inactive variants are shown than the library holds.
Could you please report measured polymerase ribozyme fitness (log ratio) for the items listed next?
Keep it simple and answer with nothing but the number.

Q. I am curious: what polymerase ribozyme fitness (log ratio) value has been reported for A26G A60G ?
A. -3.55

Q. Sample G59A A137U G141C — what was its polymerase ribozyme fitness (log ratio)?
A. -3.95

Q. # polymerase ribozyme fitness (log ratio) lookup, item A3U C10U C54A U55A
A. -1.97

Q. # lookup: polymerase ribozyme fitness (log ratio) of U4A C54U G92U C118U U134A
A. -3.6

Q. Field request: polymerase ribozyme fitness (log ratio) | item: A40C A52C
A. -1.04

Q. Which polymerase ribozyme fitness (log ratio) value belongs to C57U C76U A98G ?
A. -0.421

Q. State the recorded polymerase ribozyme fitness (log ratio) for this entry: U13G C93G
A. -3.88

Q. What measured polymerase ribozyme fitness (log ratio) goes with C57G G84U ?
A. -1.79

Q. Looking for the measured polymerase ribozyme fitness (log ratio) of C5U C38G C57U G84U A106C , can you help?
A. -3

Q. I would be grateful if you could share the reported polymerase ribozyme fitness (log ratio) for A21U G84A A89G .
A. -1.44

Q. Requested field: polymerase ribozyme fitness (log ratio). Item: C87U C131U
A. 1.46

Q. polymerase ribozyme fitness (log ratio) lookup needed for U56G G58C U61A , thanks.
A. -2.98

Q. // returns reported polymerase ribozyme fitness (log ratio) for input C69U G136U U146C
A. -2.94
